Target: recombinant human Myt1 (full length PKMYT1) (Homo sapiens (Human), UniProt Q99640)
Sequence (Q99640 whole entry): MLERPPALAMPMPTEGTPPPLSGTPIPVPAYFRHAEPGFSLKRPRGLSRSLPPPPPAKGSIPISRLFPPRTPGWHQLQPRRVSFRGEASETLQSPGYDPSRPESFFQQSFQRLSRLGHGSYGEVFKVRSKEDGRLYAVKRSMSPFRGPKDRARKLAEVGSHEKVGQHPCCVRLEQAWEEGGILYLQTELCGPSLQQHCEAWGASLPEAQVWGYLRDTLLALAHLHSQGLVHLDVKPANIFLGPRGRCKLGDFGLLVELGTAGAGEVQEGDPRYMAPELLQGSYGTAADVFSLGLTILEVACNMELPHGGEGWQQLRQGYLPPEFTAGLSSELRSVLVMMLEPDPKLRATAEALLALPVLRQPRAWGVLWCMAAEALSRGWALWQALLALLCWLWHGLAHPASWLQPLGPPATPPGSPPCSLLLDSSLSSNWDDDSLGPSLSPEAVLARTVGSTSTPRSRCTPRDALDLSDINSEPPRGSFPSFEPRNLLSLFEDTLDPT
Test: Recombinant human Myt1 kinase assay (ADP-Glo)
Conditions: 10 μM ATP
measured-quantity: IC50 (nM)

molecule="Cc1ccc2[nH]ncc2c1-c1nc(-c2cc(F)ncc2NC2CCOCC2)nc(C(N)=O)c1N [Compound 843]" measured_quantity=IC50 unit_label=nM value_observed=3
molecule="Cc1ccc(-c2nc(C(N)=O)c(N)c(-c3c(C)ccc4[nH]ncc34)n2)s1 [Compound 110]" measured_quantity=IC50 unit_label=nM value_observed=23
molecule="Cc1ccc(O)c(C)c1-c1cc(-c2ccncn2)nc(C(N)=O)c1N [Compound 89]" measured_quantity=IC50 unit_label=nM value_observed=3

[A] CCC(CC)COc1cccc(-c2cc(-c3c(C)ccc4[nH]ncc34)c(N)c(C(N)=O)n2)n1 [Compound 350]
[B] NC(=O)c1nc(-c2ccccc2)nc(-c2cc(F)cc3[nH]ncc23)c1N [Compound 122]
[C] Cc1nc2cccc(-c3nc(C(N)=O)c(N)c(-c4c(C)ccc5[nH]ncc45)n3)c2s1 [Compound 389]
Sort by IC50, descending. API: response body holds the labels in the requested order.
B, A, C
(B: 137 nM, A: 35 nM, C: 8 nM)

[I] Cc1ccc2[nH]ncc2c1-c1nc(-c2cccc3cc[nH]c23)nc(C(N)=O)c1N [Compound 366]
[II] Cc1ccc2[nH]ncc2c1-c1nc(-c2ccccc2NCC2(C)CC2)nc(C(N)=O)c1N [Compound 452]
Kindly compare I with II and tell me which has the lower IC50 figure. Record your answer as the label of the chosen record.
II

[1] Cc1ccc(O)cc1-c1nc(-c2nccs2)nc(C(N)=O)c1N [Compound 3]
[2] Cc1ccc(O)c(C)c1-c1cc(-c2cccc(N3CCOCC3)c2)nc(C(N)=O)c1N [Compound 42]
Form field 'greater IC50' accepts 1 or 2 ; which applies? Record your answer as the label of the chosen record.
1
(1: 21 nM, 2: 7 nM)

[1] Cc1ccc2[nH]ncc2c1-c1cc(-c2cccc(OCCN3CCN(C)CC3)n2)nc(C(N)=O)c1N [Compound 307]
[2] Cc1ccc2[nH]ncc2c1-c1nc(-c2ccccc2NS(=O)(=O)C2CC2)nc(C(N)=O)c1N [Compound 426]
Kindly compare 1 with 2 and tell me which has the lower IC50 figure. Record your answer as the label of the chosen record.
2
(2: 4 nM, 1: 25 nM)
